conditions: in methyl acetate, 293.15 K
EXPERIMENTAL ENDPOINT: solubility (mole fraction)
Numbers only.

Input line: I have this compound here, Cc1c(C(=O)c2c[nH]n(C)c2=O)ccc(S(C)(=O)=O)c1C1=NOCC1 , and I need its recorded solubility (mole fraction).
Output line: 0.00135

* * *

details: in toluene, 293.15 K
EXPERIMENTAL ENDPOINT: solubility (mole fraction)

Input line: Using the record for Cc1c(C(=O)c2c[nH]n(C)c2=O)ccc(S(C)(=O)=O)c1C1=NOCC1 , report its solubility (mole fraction).
Output line: 0.00035

* * *

settings: in isopropyl acetate, 323.15 K
EXPERIMENTAL ENDPOINT: solubility (mole fraction)

Input line: Reported solubility (mole fraction), molecule Cc1c(C(=O)c2c[nH]n(C)c2=O)ccc(S(C)(=O)=O)c1C1=NOCC1 : ____
Output line: 0.00119
